We begin with Ki values for Coagulation factor X (Homo sapiens), as collected from the published literature.

Below, each entry is followed by its recorded Ki result.
# Compound, Tgt, Ki
data = [
    ("Cc1ccc(N(C)C)cc1Oc1nc(Oc2cccc(C(=N)N)c2)c(F)c(C)c1F", "Coagulation factor X (Homo sapiens)", "> 5 µM"),
    ("CC(C)c1ccc(CCNS(=O)(=O)c2cc(/C(N)=N/O)ccc2O)c(OCC(=O)O)c1", "Coagulation factor X (Homo sapiens)", "> 10 µM"),
    ("Cc1ccc(O)c2c3c(nn12)CCC(C)(NC(=O)c1ccc(C#N)cc1F)C3 (centres undefined)", "Coagulation factor X (Homo sapiens)", "> 62.5 µM"),
]

Shift focus to the following entry.
Look up and report Ki, with Coagulation factor X (Homo sapiens) as system, for Cc1ccc(NC(=O)c2sc3ccccc3c2Cl)c(C(=O)Nc2nccs2)c1
> 5 µM

* * *

We begin with Ki values for UniProt P00742, as collected from the published literature.

Below, each entry is followed by its recorded Ki result.
# Smiles Entry, Ki
records = [
    ("COC(=O)Nc1ccc(-c2ccnc([C@H](Cc3ccccc3)NC(=O)[C@H]3CC[C@H](CN)CC3)c2)cc1", "> 9 µM"),
    ("Cl.NCCCC[C@H](NC(=O)c1ccc(F)c(F)c1)C(=O)c1noc(Cc2ccc(OCCc3ccc(Cl)c(Cl)c3)cc2)n1", "> 150 µM"),
]

Shift focus to the following entry.
Determine from records and report Ki for CC(=O)O.CCOC(=O)C1CCN(c2ccc(N3C[C@@H](CNC(=O)c4ccc(C(=N)N)cc4)OC3=O)cc2)CC1
> 100 µM
